molecular target: CSF1R (Homo sapiens, UniProt P07333); experiment: HotSpot kinase profiling, CSF1R; type: biochemical; conditions: HotSpot assay, 10 μM ATP
Sequence (P07333 20-972): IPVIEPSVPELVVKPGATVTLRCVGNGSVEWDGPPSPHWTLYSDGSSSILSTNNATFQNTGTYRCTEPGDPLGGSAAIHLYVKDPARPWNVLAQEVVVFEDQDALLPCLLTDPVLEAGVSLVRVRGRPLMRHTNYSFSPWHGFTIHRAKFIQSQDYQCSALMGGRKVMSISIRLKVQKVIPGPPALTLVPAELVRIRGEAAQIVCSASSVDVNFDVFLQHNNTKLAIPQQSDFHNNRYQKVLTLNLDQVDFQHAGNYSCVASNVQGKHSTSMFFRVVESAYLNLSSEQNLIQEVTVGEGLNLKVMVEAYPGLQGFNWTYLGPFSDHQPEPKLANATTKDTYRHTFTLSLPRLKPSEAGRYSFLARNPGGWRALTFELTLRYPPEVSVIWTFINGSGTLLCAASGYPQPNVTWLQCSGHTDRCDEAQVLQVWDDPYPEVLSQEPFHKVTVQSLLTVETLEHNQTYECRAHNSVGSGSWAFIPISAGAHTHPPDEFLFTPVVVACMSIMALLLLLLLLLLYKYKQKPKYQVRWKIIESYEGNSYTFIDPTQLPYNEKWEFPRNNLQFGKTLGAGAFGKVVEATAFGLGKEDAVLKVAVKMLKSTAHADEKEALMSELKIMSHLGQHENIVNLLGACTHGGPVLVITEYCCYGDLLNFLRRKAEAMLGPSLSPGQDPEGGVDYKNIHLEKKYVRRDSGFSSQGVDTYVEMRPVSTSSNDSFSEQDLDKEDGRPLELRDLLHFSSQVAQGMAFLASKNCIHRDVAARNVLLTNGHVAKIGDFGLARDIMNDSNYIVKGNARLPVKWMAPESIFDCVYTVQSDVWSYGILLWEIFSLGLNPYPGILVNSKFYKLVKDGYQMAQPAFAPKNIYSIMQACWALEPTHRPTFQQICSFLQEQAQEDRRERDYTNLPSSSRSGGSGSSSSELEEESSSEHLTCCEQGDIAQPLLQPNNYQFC
Parameter: IC50 (nM)
Quick note: give the figure in nM, leave out the unit.

Exercise: Could you share which IC50 value was measured for CN(C)c1ccc2c(Oc3ccc(NC(=O)NCc4ccc(C(F)(F)F)nc4)cc3)ncnc2c1 ?
Solution: 0.534

Exercise: Follow-up entry: CN(C)c1ccc2c(Oc3ccc4c(ccn4C(=O)NCc4ccc(C(F)(F)F)nc4)c3)ncnc2c1
Solution: 5.69

====

target: CSF1R kinase (recombinant N-terminal GST-CSF1R, residues L534-C972) (Homo sapiens); construct: Recombinant N-terminal GST-CSF1R (CSF1R residues L534-C972) containing the CSFIR kinase domain; experiment: CSF1R Kinase-Glo assay; conditions: 40 μM ATP, 30° C. 180 min, read-out: Enzymatic Assay CSF1R enzyme IC50
Exercise: for every item that follows, state its recorded IC50.

Exercise: GET /values?readout=IC50&item= CCc1cc(Oc2ncnc3cc(N(C)C)ccc23)ccc1NC(=O)NCc1ccc(C(F)(F)F)nc1 [Compound 29]
Solution: 100 to 1000 nM

Exercise: Param item: Cc1cc(Oc2ncnc3cc(N(C)C)ccc23)ccc1NC(=O)NCc1ccc(C(F)(F)F)nc1 [Compound 38]
Solution: > 1000 nM

Exercise: Record: CN(C)c1ccc2c(Oc3ccc(NC(=O)NCc4ccn(C)n4)cc3)ncnc2c1 [Compound 84]
Solution: 100 to 1000 nM

Exercise: Continue with CN(C)c1ccc2c(Oc3ccc(NC(=O)Nc4ccccc4F)cc3)ncnc2c1 [Compound 14]
Solution: < 20 nM

Exercise: Now give it for CN(C)c1ccc2c(Oc3ccc(NC(=O)Nc4cccc(F)c4)cc3)ncnc2c1 [Compound 18] too.
Solution: < 20 nM

Exercise: Item: O=C(NCc1ccc(C(F)(F)F)nc1)Nc1ccc(Oc2ncnc3cc(N4CCN(C5COC5)CC4)ccc23)cc1 [Compound 98]
Solution: < 20 nM

Exercise: Next compound up: CN(C)c1ccc2c(Oc3ccc4c(ccn4C(=O)NCc4ccc(C(F)(F)F)nc4)c3)ncnc2c1 [Compound 67]
Solution: 20 to 100 nM

Exercise: Queued: CN(C)c1ccc2c(Oc3ccc4c(cnn4C(=O)NCc4ccc(C(F)(F)F)nc4)c3)ncnc2c1 [Compound 69]
Solution: > 1000 nM

Exercise: Same for COC1CCN(c2ccc3c(Oc4ccc(NC(=O)NCc5ccc(C(F)(F)F)nc5)cc4)ncnc3c2)CC1 [Compound 24]
Solution: < 20 nM

Exercise: Follow-up item: C[C@@H]1CN(c2ccc3c(Oc4ccc(NC(=O)NCc5ccc(C(F)(F)F)nc5)cc4)ncnc3c2)C[C@H](C)N1C [Compound 97]
Solution: 20 to 100 nM

Exercise: Also CN(C)c1ccc2c(Oc3ccc(NC(=O)NCc4c(F)c(F)c(F)c(F)c4F)cc3)ncnc2c1 [Compound 62] ?
Solution: < 20 nM

Exercise: Another compound: CN(C)c1ccc2c(Oc3ccc(NC(=O)NCC(C)(C)C)cc3)ncnc2c1 [Compound 90]
Solution: 100 to 1000 nM

Exercise: Also O=C(Nc1ccccc1)Nc1ccc(Oc2ncnc3cc(Br)ccc23)cc1 [Compound 7] , if possible.
Solution: > 1000 nM

Exercise: Consider next the compound COCCN1CCN(c2ccc3c(Oc4ccc(NC(=O)NCc5ccc(C(F)(F)F)nc5)cc4)ncnc3c2)CC1 [Compound 108] in the same way.
Solution: 20 to 100 nM

Exercise: Another compound to look at: O=C(NCc1ccc(C(F)(F)F)nc1)Nc1ccc(Oc2ncnc3cc(N4CCOCC4)ccc23)cc1 [Compound 99]
Solution: < 20 nM

Exercise: Another compound: CN(C)c1ccc2c(Oc3ccc(NC(=O)Nc4cccc(Cl)c4)cc3)ncnc2c1 [Compound 16]
Solution: < 20 nM

Exercise: Now this one: COc1ccc(NC(=O)Nc2ccc(Oc3ncnc4cc(N(C)C)ccc34)cc2)cc1 [Compound 21]
Solution: < 20 nM

Exercise: // query: CN(C)c1ccc2c(Nc3ccc(NC(=O)Nc4ccccc4)cc3)ncnc2c1 [Compound 71]
Solution: 100 to 1000 nM

Exercise: Likewise for O=C(Nc1ccccc1)Nc1ccc(Oc2ncnc3cc(N[C@@H]4CCCC[C@H]4O)ccc23)cc1 [Compound 5] ?
Solution: 20 to 100 nM

Exercise: Then CN(C)c1ccc2c(Oc3ccc(NC(=O)NCc4ccc(C#N)cc4)cc3)ncnc2c1 [Compound 60] ?
Solution: 20 to 100 nM

Exercise: # repeat for CN(C)c1ccc2c(Oc3ccc4nc(NCc5ccc(C(F)(F)F)nc5)oc4c3)ncnc2c1 [Compound 102]
Solution: 20 to 100 nM

Exercise: // repeat for CN(C)c1ccc2c(Oc3ccc(NC(=O)NCC4CCCCC4)cc3)ncnc2c1 [Compound 50] and report
Solution: 20 to 100 nM

Exercise: Same question for COC(C)(C)CNC(=O)Nc1ccc(Oc2ncnc3cc(N(C)C)ccc23)cc1 [Compound 87] please.
Solution: > 1000 nM

Exercise: One more compound: Cc1cc(Oc2ncnc3cc(N(C)C)ccc23)c(C)cc1NC(=O)NCc1ccc(C(F)(F)F)nc1 [Compound 35]
Solution: > 1000 nM

Exercise: Further, for COc1ccc(CNC(=O)Nc2ccc(Oc3ncnc4cc(N(C)C)ccc34)cc2)cc1 [Compound 59] ?
Solution: < 20 nM

Exercise: Try this compound next: COC1CCN(c2ccc3c(Oc4ccc(NC(=O)Nc5ccc(Cl)cc5)cc4)ncnc3c2)CC1 [Compound 20]
Solution: < 20 nM

Exercise: Lookup CN(C)c1ccc2c(Oc3ccc(NC(=O)NCc4ccc(C(F)(F)F)cc4)cc3)ncnc2c1 [Compound 56]
Solution: 20 to 100 nM

Exercise: Likewise for CN(C)c1ccc2c(Oc3ccc(NC(=O)NCc4ccc(S(N)(=O)=O)cc4)cc3)ncnc2c1 [Compound 49] ?
Solution: < 20 nM

Exercise: What about this compound? CN(C)c1ccc2c(Oc3ccc(NC(=O)NCc4ccc(OC(F)(F)F)cc4)cc3)ncnc2c1 [Compound 57]
Solution: < 20 nM

Exercise: How about this compound: CN(C)c1ccc2c(Oc3ccc(N(C)C(=O)NCc4ccc(C(F)(F)F)nc4)cc3)ncnc2c1 [Compound 47]
Solution: > 1000 nM

Exercise: Next: CN(C)c1ccc2c(Oc3ccc(NC(=O)NCc4nccs4)cc3)ncnc2c1 [Compound 101]
Solution: 20 to 100 nM

Exercise: What about CN(C)c1ccc2c(Oc3ccc(NC(=O)Nc4ccc(F)cc4)cc3)ncnc2c1 [Compound 106] ?
Solution: < 20 nM

====

Molecular target: CSF1R kinase (recombinant N-terminal GST-CSF1R, residues L534-C972) (Homo sapiens, UniProt P07333)
Construct: Recombinant N-terminal GST-CSF1R (CSF1R residues L534-C972) containing the CSFIR kinase domain
Sequence (P07333 534-972): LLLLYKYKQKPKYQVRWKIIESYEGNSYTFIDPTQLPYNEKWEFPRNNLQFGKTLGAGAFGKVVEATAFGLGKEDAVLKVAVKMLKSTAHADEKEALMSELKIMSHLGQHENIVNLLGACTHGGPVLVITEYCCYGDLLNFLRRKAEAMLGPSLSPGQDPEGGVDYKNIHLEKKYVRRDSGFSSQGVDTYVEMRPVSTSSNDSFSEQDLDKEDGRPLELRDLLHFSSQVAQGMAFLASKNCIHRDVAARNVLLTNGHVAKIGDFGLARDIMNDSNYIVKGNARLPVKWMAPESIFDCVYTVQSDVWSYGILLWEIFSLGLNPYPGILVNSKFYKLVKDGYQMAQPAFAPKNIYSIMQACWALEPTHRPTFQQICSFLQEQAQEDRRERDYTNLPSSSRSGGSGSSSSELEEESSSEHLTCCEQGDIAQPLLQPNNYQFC
Assay: CSF1R Kinase-Glo assay
Details: 40 μM ATP, 30° C. 180 min, read-out: Enzymatic Assay CSF1R enzyme IC50
Experimental: A study was conducted to test certain compounds described in EXAMPLE 1 in inhibiting CSF1R kinase activity. Activity of CSF1R kinase was determined using a CSF1R Kinase-Glo assay. […] A 70-μL aliquot of each reaction mixture was transferred to a black microtiter plate and luminescence was measured on Wallac Vector 1420 multilabel counter (PerkinElmer, Shelton, CT, USA). […]
pIC50: −log10 of the molar value.
Parameter: pIC50

Exercise: I'd like to know its pIC50. The compound in question is CN(C)c1ccc2c(Oc3ccc(NC(=O)Nc4ccccc4)cc3)ncnc2c1 [Compound 4]
Solution: 7.00 to 7.70

Exercise: Try this compound next: CN(C)c1ccc2c(Oc3ccc(NC(=O)NCCc4ccccc4)cc3)ncnc2c1 [Compound 58]
Solution: > 7.70

Exercise: Same read-out for COC[C@H]1CCCN1c1ccc2c(Oc3ccc(NC(=O)Nc4ccccc4)cc3)ncnc2c1 [Compound 10] ?
Solution: 7.00 to 7.70

Exercise: Let us now turn to O=C(NCc1ccc(C(F)(F)F)nc1)Nc1ccc(Oc2ncnc3cc(Br)ccc23)cc1 [Compound 31]
Solution: 6.00 to 7.00

Exercise: Also O=C(Nc1ccccc1)Nc1ccc(Oc2ncnc3cc(N4CCCC4)ccc23)cc1 [Compound 9] ?
Solution: 7.00 to 7.70

Exercise: Now consider CN(C)c1ccc2c(Oc3cnc4c(ccn4C(=O)NCc4ccc(C(F)(F)F)nc4)c3)ncnc2c1 [Compound 83] and answer again.
Solution: 6.00 to 7.00

Exercise: Next up: CN1CCN(c2ccc3c(Oc4ccc(NC(=O)Nc5ccccc5)cc4)ncnc3c2)CC1 [Compound 3]
Solution: 7.00 to 7.70

Exercise: # iterate: COc1ccc(NC(=O)Nc2ccc(Oc3ncnc4cc(N(C)C)ccc34)cc2)cc1Cl [Compound 105]
Solution: 7.00 to 7.70

====

target: CSF1R kinase (recombinant N-terminal GST-CSF1R, residues L534-C972) (Homo sapiens, UniProt P07333); construct: Recombinant N-terminal GST-CSF1R (CSF1R residues L534-C972) containing the CSFIR kinase domain; assay: CSF1R Kinase-Glo assay; conditions: 40 μM ATP, 30° C. 180 min, read-out: Enzymatic Assay CSF1R enzyme IC50
Parameter: IC50

Exercise: Entry under review: CN(C)c1ccc2c(Oc3ccc(NC(=O)NCc4ccc(C(F)(F)F)nc4)cc3)ncnc2c1 . Reported IC50?
Solution: < 20 nM

Exercise: // repeat for COC1CCN(c2ccc3c(Oc4ccc(NC(=O)Nc5ccccc5)cc4)ncnc3c2)CC1 and report
Solution: 20 to 100 nM

Exercise: Request: COCCCNc1ccc2c(Oc3ccc(NC(=O)Nc4ccccc4)cc3)ncnc2c1
Solution: 20 to 100 nM

Exercise: Moving on to CN(C)c1ccc2c(Oc3ccc(NC(=O)NCc4ccc(C(F)(F)F)cc4)c(F)c3)ncnc2c1
Solution: 100 to 1000 nM

Exercise: Then this molecule: CN(C)c1ccc2c(Oc3ccc(NC(=O)NCc4ccc(C(F)(F)F)nc4)cc3Cl)ncnc2c1
Solution: 20 to 100 nM

Exercise: Now this one: CCN1CCN(c2ccc3c(Oc4ccc(NC(=O)NCc5ccc(C(F)(F)F)nc5)cc4)ncnc3c2)CC1
Solution: < 20 nM

Exercise: Query CN(C)c1ccc2c(Oc3ccc(NC(=O)NCc4ccc(C(F)(F)F)nc4)c(Cl)c3)ncnc2c1 next
Solution: 20 to 100 nM

Exercise: Next up: Cc1ccc(CNC(=O)Nc2ccc(Oc3ncnc4cc(N(C)C)ccc34)cc2)cn1
Solution: < 20 nM

These entries and their values trace back to patent US12668584B2.
